Conditions: in DMAc, 343.2 K
Measurement type: solubility (mole fraction)
Give bare numbers.

Query string: Given the entry O=C(O)c1ccc(C(=O)O)cc1 , report its measured solubility (mole fraction).
Result string: 0.0385

###

Details: in DMAc, 323.2 K
Measurement type: solubility (mole fraction)
Give bare numbers.

Query string: Given the entry O=C(O)c1ccc(C(=O)O)cc1 , report its measured solubility (mole fraction).
Result string: 0.0269

###

Settings: in DMAc, 313.2 K
Measurement type: solubility (mole fraction)

Query string: Given the entry O=C(O)c1ccc(C(=O)O)cc1 , report its measured solubility (mole fraction).
Result string: 0.0211

###

Conditions: in NMP, 303.2 K
Measurement type: solubility (mole fraction)
Give bare numbers.

Query string: Given the entry O=C(O)c1ccc(C(=O)O)cc1 , report its measured solubility (mole fraction).
Result string: 0.0133

###

Settings: in NMP, 323.2 K
Measurement type: solubility (mole fraction)
Numbers only.

Query string: Given the entry O=C(O)c1ccc(C(=O)O)cc1 , report its measured solubility (mole fraction).
Result string: 0.0188

###

Conditions: in NMP, 313.2 K
Measurement type: solubility (mole fraction)
Numbers only.

Query string: Given the entry O=C(O)c1ccc(C(=O)O)cc1 , report its measured solubility (mole fraction).
Result string: 0.0155

###

Conditions: in NMP, 363.2 K
Measurement type: solubility (mole fraction)
Numbers only.

Query string: Given the entry O=C(O)c1ccc(C(=O)O)cc1 , report its measured solubility (mole fraction).
Result string: 0.0328
